Attribution: PubChem BioAssay (NCI)

tested on: SNB-75 CNS; assay: NCI tumour cell line growth inhibition, 48 h; in the data active means GI50 below about 0.43 µM; inactive means the rest
Classes used: active, inactive

{"columns": ["Molecule", "Target under test", "Label"],
 "data": [
  ["CCCN(CCC)c1ccc(C=O)c(Cl)c1", "SNB-75 CNS", "inactive"],
  ["COc1ccc(-c2c(C#N)c(N)nc(N3CCOCC3)c2C#N)cc1", "SNB-75 CNS", "inactive"],
  ["CCOC(=O)c1ccc(NC(=O)NC2=NCCS2)cc1", "SNB-75 CNS", "active"],
  ["Cn1c(=O)n(C)c2cc(CNCCNc3ccnc4cc(Cl)ccc34)ccc21", "SNB-75 CNS", "inactive"],
  ["COc1ccc(C(=O)c2sc3nc(-c4ccccc4OC)ccc3c2N)cc1OC", "SNB-75 CNS", "inactive"],
  ["CC(NC(=O)Cc1ccc(C(F)(F)P(=O)(OCc2ccc([N+](=O)[O-])o2)N(C)CCCCCl)cc1)c1ccc(OCC2CCCCC2)c(C(N)=O)c1 (configuration not stated)", "SNB-75 CNS", "inactive"],
  ["Cn1cc(-c2cc(-c3cn(C)c4ccc(Cl)cc34)[nH]n2)c2cc(Cl)ccc21", "SNB-75 CNS", "inactive"]
]}
